VALUE TYPE: melting point

As a guide, the following entries are already answered.
| COMPOUND | MEASURED RESULT |
| --- | --- |
| O=C(c1ccc(SC2SCC(O)C(O)C2O)cc1)C(F)(F)F (stereo not given) | 133 to 134 °C |
| CN(Cc1cccc2c1C(=O)N(C1CCC(=O)NC1=O)C2=O)C(=O)OC(C)(C)C (stereo not given) | 138 to 140 °C |
| Fc1ccc(F)c(-n2nnc3cccnc32)c1 | 140 °C |
| Clc1ncccc1-c1nnsc1-c1cccnc1Cl | 146 to 148 °C |
| CN1Cc2c(F)ncn2-c2ccccc2C1=O | 171 to 172 °C |

Kindly review the next compound as well.
# query: melting point of entry O=C(O)CS(=O)CCCCCn1nc(-c2ccccc2)c(-c2ccccc2)c1-c1ccccc1 (stereo not given) 129 to 130 °C
